- assayTarget: mAChR M4 (Homo sapiens, UniProt P08173)
- Construct: expressed in transfected cells; host or cells: CHO-K1 cells stably transfected with M4 cDNA and chimeric G-protein Gqi5
- Sequence (P08173 1-479): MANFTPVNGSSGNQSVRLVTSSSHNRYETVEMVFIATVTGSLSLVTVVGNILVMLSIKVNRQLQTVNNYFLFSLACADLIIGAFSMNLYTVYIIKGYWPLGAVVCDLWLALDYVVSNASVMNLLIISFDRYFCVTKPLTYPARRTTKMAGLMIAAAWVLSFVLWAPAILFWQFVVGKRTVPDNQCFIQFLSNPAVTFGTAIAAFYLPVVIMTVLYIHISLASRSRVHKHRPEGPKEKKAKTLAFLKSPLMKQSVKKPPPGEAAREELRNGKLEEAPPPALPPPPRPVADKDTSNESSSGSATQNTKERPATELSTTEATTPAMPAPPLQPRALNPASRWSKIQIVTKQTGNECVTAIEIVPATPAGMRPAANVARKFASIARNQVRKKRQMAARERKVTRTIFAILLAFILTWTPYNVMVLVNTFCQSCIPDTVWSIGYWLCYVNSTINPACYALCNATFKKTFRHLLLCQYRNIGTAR
- assayComment: mAChR M4 cell-based functional assay (calcium mobilization, potentiation of EC20 acetylcholine response)
- experimentalParameters: % ACh maximum at 30 μM
Each record here notes measured Emax at 30 µM.

- recordSmiles: "Cc1nnc2sc(C(=O)NCc3ccc(F)nc3)c(N)c2c1C"
  assayTarget: "mAChR M4 (Homo sapiens, UniProt P08173)"
  endpointUnit: "%"
  Emax at 30 µM: 80
- recordSmiles: "COc1ccc(C(=O)N2CC(NC(=O)c3sc4nnc(C)c(C)c4c3N)C2)c(OC)c1"
  assayTarget: "mAChR M4 (Homo sapiens, UniProt P08173)"
  endpointUnit: "%"
  Emax at 30 µM: 61
- recordSmiles: "Cc1nnc2sc(C(=O)N3CCC(c4ccccc4)CC3)c(N)c2c1C"
  assayTarget: "mAChR M4 (Homo sapiens, UniProt P08173)"
  endpointUnit: "%"
  Emax at 30 µM: 38
- recordSmiles: "Cc1nnc2sc(C(=O)NCc3ccc4ccccc4c3)c(N)c2c1C"
  assayTarget: "mAChR M4 (Homo sapiens, UniProt P08173)"
  endpointUnit: "%"
  Emax at 30 µM: 62
- recordSmiles: "CS(=O)(=O)c1ccc(CNC(=O)c2sc3nnc(-c4ccccc4)c(-c4ccccc4)c3c2N)cc1"
  assayTarget: "mAChR M4 (Homo sapiens, UniProt P08173)"
  endpointUnit: "%"
  Emax at 30 µM: 48

###

- assayTarget: mAChR M4 (Homo sapiens, UniProt P08173)
- Construct: expressed in transfected cells; host or cells: CHO-K1 cells stably transfected with M4 cDNA and chimeric G-protein Gqi5
- Sequence (P08173 1-479): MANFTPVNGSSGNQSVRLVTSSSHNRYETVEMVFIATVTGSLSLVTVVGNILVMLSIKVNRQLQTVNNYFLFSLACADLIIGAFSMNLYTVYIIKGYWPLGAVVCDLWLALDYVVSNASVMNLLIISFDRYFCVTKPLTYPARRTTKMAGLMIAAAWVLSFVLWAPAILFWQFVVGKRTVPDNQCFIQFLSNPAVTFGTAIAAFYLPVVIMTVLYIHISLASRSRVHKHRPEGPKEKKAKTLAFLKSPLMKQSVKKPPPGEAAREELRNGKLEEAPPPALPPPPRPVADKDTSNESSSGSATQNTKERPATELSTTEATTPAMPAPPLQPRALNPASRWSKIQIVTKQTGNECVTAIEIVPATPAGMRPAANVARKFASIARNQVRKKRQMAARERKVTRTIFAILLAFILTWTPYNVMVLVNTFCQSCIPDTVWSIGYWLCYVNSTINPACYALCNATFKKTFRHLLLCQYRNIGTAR
- assayComment: mAChR M4 cell-based functional assay (calcium mobilization, potentiation of EC20 acetylcholine response)
- experimentalParameters: % ACh maximum at 30 μM
For each record, check the reported Emax at 30 µM: if it is below 60% write criterion met, else write criterion not met.

- molecule: "Cc1nnc2sc(C(=O)NCc3ccccc3)c(N)c2c1C"
  category: "criterion not met"
- molecule: "Cc1nnc2sc(C(=O)NCCN(C)C(=O)C3CC3)c(N)c2c1C"
  category: "criterion met"
- molecule: "Cc1nnc2sc(C(=O)N3CCC(NC(=O)N4CCOCC4)C3)c(N)c2c1C (stereo not drawn)"
  category: "criterion met"
- molecule: "CS(=O)(=O)c1ccc(CNC(=O)c2sc3nnc(Cl)cc3c2N)cc1"
  category: "criterion met"

###

Each record here notes measured EC50.
- assayTarget: mAChR M4 (Homo sapiens)
- Construct: expressed in transfected cells; host or cells: CHO-K1 cells stably transfected with M4 cDNA and chimeric G-protein Gqi5
- Sequence (P08173 1-479): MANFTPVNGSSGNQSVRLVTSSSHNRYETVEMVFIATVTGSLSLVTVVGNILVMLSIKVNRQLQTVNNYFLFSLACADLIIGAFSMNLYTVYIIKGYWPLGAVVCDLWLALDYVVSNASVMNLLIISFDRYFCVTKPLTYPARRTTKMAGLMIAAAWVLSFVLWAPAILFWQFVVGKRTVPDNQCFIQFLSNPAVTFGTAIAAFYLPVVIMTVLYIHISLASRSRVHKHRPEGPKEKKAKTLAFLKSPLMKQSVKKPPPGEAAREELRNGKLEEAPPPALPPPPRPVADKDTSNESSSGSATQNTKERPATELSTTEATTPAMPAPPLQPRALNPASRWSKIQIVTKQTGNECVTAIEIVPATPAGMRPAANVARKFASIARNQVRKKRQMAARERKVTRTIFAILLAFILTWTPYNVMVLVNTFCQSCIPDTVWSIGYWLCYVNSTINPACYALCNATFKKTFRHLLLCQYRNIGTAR
- assayComment: mAChR M4 cell-based functional assay (calcium mobilization, potentiation of EC20 acetylcholine response)
- experimentalParameters: mAChR M4 cell-based functional assay; >10,000 estimated for low potency compounds without plateau; read-out: EC50

- recordSmiles: "Cc1nnc2sc(C(=O)N3CC(F)(CCC4OCCCO4)C3)c(N)c2c1C"
  EC50: "> 10 µM"
- recordSmiles: "Cc1nnc2sc(C(=O)NCC3CN(C(=O)OC(C)(C)C)C3)c(N)c2c1C"
  EC50: "> 10 µM"
- recordSmiles: "Cc1nnc2sc(C(=O)N3CCc4nn(C)cc4C3)c(N)c2c1C"
  EC50: "> 10 µM"

###

- assayTarget: mAChR M4 (Homo sapiens, UniProt P08173)
- Construct: expressed in transfected cells; host or cells: CHO-K1 cells stably transfected with M4 cDNA and chimeric G-protein Gqi5
- Sequence (P08173 1-479): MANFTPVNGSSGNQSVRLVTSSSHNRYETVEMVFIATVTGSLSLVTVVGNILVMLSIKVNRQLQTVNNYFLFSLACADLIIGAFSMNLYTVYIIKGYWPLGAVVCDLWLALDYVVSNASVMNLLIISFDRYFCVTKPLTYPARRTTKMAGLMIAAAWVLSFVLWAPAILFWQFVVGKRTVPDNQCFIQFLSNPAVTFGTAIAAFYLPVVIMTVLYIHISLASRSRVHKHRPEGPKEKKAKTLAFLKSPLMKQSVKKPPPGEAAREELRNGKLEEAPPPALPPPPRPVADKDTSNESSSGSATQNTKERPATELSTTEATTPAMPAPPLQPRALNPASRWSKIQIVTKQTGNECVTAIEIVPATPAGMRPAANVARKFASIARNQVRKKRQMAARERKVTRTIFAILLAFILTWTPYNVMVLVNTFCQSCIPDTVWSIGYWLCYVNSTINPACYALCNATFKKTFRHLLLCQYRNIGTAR
- assayComment: mAChR M4 cell-based functional assay (calcium mobilization, potentiation of EC20 acetylcholine response)
- experimentalParameters: % ACh maximum at 30 μM
For each record, check the reported Emax at 30 µM: if it is below 60% write y, else write n.

- compound: "CCOc1ccc(CNC(=O)c2sc3nnc(C)c(C)c3c2N)cc1"
  assayTarget: "mAChR M4 (Homo sapiens, UniProt P08173)"
  category: "n"
- compound: "CCCCCC(=O)NC1CN(C(=O)c2sc3nnc(C)c(C)c3c2N)C1"
  assayTarget: "mAChR M4 (Homo sapiens, UniProt P08173)"
  category: "y"
- compound: "Cc1nnc2sc(C(=O)NCc3ccc(Br)cc3)c(N)c2c1C"
  assayTarget: "mAChR M4 (Homo sapiens, UniProt P08173)"
  category: "n"
- compound: "Cc1nnc2sc(C(=O)NC3CCN(S(=O)(=O)c4ccccc4OC(F)(F)F)C3)c(N)c2c1C (stereo not shown)"
  assayTarget: "mAChR M4 (Homo sapiens, UniProt P08173)"
  category: "n"
- compound: "COC1CCN(C(=O)c2sc3nnc(C)c(C)c3c2N)C1 (stereo not shown)"
  assayTarget: "mAChR M4 (Homo sapiens, UniProt P08173)"
  category: "y"
- compound: "Cc1nnc2sc(C(=O)N3CC4(CN(C(=O)OCc5ccccc5)C4)C3)c(N)c2c1C"
  assayTarget: "mAChR M4 (Homo sapiens, UniProt P08173)"
  category: "y"
- compound: "Cc1nnc2sc(C(=O)NCc3ccncn3)c(N)c2c1C"
  assayTarget: "mAChR M4 (Homo sapiens, UniProt P08173)"
  category: "n"
